Biological target: T1, human GLP-1 receptor (human, UniProt P43220 24-463)
T1 construct: whole, on cells; also called hGLP-1R; human glucagon-like peptide-1 receptor
Assay: SPA competition vs [125I]-GLP-1, hGLP-1R membranes
Method: The binding buffer contains 25 mM HEPES, pH 7.4, 2.5 mM CaCl₂, 1 mM MgCl₂, 0.1% (w/v) bacitracin, 0.003% (w/v) TWEEN®-20, and Roche Complete™ Protease Inhibitors without EDTA. Data are analyzed using four-parameter (curve maximum, curve minimum, IC₅₀, Hill slope) nonlinear regression routines (Genedata Screener, version 12.0.4, Genedata AG, Basal, Switzerland). […] Geometric Means are calculated as follows: […]
Measured pKi, listed per entry for reference.
By convention, pKi is the negative base-10 log of a molar concentration.

These solved cases illustrate the format of a correct answer.
binder: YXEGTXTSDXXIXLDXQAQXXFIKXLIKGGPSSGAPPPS (Aib2, αMeF(2F)6, 4Pal10, Aib11, αMeL13, Orn16, Aib20, Orn21, K24(Z1), αMeY25, K28(Z1), C-term NH2; Z1=AEEA2-(γ-Glu)-(11-(4-carboxyphenoxy)undecanoyl))
pKi: 9.79
--
binder: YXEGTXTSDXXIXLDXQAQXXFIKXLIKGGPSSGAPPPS (Aib2, αMeF(2F)6, 4Pal10, Aib11, αMeL13, Orn16, Aib20, Orn21, K24(Z1), αMeY25, K28(Z1), C-term NH2; Z1=Ahx-AEEA-(γ-Glu)-CO-(CH2)12-CO2 (so in the source))
pKi: 9.63
--
binder: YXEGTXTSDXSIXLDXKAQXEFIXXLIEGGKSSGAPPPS (Aib2, αMeF(2F)6, 4Pal10, αMeL13, Orn16, K17(Z1), Aib20, D-Glu24, αMeY25, K31(Z1), C-term NH2; Z1=AEEA2-(γ-Glu)-CO-(CH2)14-CH3)
pKi: 9.44
--
binder: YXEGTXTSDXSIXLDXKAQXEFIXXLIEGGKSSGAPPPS (Aib2, αMeF6, 4Pal10, αMeF13, Orn16, K17(Z1), Aib20, D-Glu24, αMeY25, K31(Z1), C-term NH2; Z1=AEEA2-(γ-Glu)-CO-(CH2)12-CO2H)
pKi: 8.21
--
binder: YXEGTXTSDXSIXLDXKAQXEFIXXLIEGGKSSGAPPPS (Aib2, αMeF6, 4Pal10, αMeL13, Orn16, K17(Z1), Aib20, D-Glu24, αMeF25, K31(Z1), C-term NH2; Z1=AEEA2-(γ-Glu)-CO-(CH2)12-CO2H)
pKi: 8.44
--
binder: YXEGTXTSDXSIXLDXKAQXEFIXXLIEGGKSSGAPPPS (Aib2, αMeF(2F)6, αMeV10, αMeL13, Orn16, K17(Z1), Aib20, D-Glu24, αMeY25, K31(Z1), C-term NH2; Z1=AEEA2-(γ-Glu)-CO-(CH2)12-CO2H)
pKi: 8.94

## Input What value of measured pKi is listed for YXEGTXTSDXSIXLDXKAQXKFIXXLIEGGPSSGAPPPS (Aib2, αMeF(2F)6, 4Pal10, αMeL13, Orn16, K17(Z1), Aib20, K21(Z1), D-Glu24, αMeY25, C-term NH2; Z1=AEEA2-(γ-Glu)-CO-(CH2)10-CH3) ?
## Output 9.60

## Input What value of measured pKi is listed for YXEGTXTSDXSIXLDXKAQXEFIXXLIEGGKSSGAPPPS (Aib2, αMeF(2F)6, OMeY10, αMeL13, Orn16, K17(Z1), Aib20, D-Glu24, αMeY25, K31(Z1), C-term NH2; Z1=AEEA2-(γ-Glu)-CO-(CH2)12-CO2H) ?
## Output 8.94

## Input What value of measured pKi is listed for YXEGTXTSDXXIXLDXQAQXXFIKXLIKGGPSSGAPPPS (Aib2, αMeF(2F)6, 4Pal10, Aib11, αMeL13, Orn16, Aib20, Orn21, K24(Z1), αMeY25, K28(Z1), C-term NH2; Z1=AEEA-Ahx-(γ-Glu)-CO-(CH2)12-CO2 (so in the source)) ?
## Output 9.70

## Input What value of measured pKi is listed for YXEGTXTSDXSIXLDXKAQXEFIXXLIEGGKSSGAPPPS (Aib2, αMeF(2F)6, 4Pal10, αMeL13, Orn16, K17(Z1), Aib20, D-Glu24, αMeY25, K31(Z1), C-term NH2; Z1=AEEA-(γ-Glu)-CO-(CH2)10-CH3) ?
## Output 9.54

## Input What value of measured pKi is listed for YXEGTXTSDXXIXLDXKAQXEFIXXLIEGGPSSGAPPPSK (Aib2, αMeF(2F)6, 4Pal10, Aib11, αMeL13, Orn16, K17(Z1), Aib20, D-Glu24, αMeY25, K40(Z1), C-term NH2; Z1=AEEA2-(γ-Glu)-CO-(CH2)10-CH3) ?
## Output 9.77

## Input What value of measured pKi is listed for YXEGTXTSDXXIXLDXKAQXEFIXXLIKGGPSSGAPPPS (Aib2, αMeF(2F)6, 4Pal10, Aib11, αMeL13, Orn16, K17(Z1), Aib20, D-Glu24, αMeY25, K28(Z1), C-term NH2; Z1=AEEA-Aoc-CO-(CH2)12-CO2H) ?
## Output 8.89

## Input What value of measured pKi is listed for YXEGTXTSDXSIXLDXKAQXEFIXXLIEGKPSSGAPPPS (Aib2, αMeF(2F)6, 4Pal10, αMeL13, Orn16, K17(Z1), Aib20, D-Glu24, αMeY25, K30(Z1), C-term NH2; Z1=AEEA2-(γ-Glu)-CO-(CH2)12-CO2H) ?
## Output 8.08
